Species: Rattus norvegicus
RUN_DESCRIPTION: Inhibition of ribonucleotide reductase purified from rat Novikoff hepatoma assessed as inhibition of [3H]CDP to [3H]dCDP conversion after 40 mins
Lab note: anything with ID50 below 200 µM is marked Met; values at 200 µM or higher are marked Not met.

Input `O=C(NO)c1cccc(O)c1O` ; condition: ID50 strictly below 200 µM. Does it hold?
Met

And then `O=C(NO)c1cccc(O)c1` , what is it?
Not met

And then NC(=O)NO [HYDROXYUREA] , what is it?
Not met

And then `Nc1cccc(C(=O)NO)c1` , what is it?
Not met

And then `O=C(NO)c1ccc(O)c(O)c1O` , what is it?
Met

And then `Nc1ccc(C(=O)NO)cc1N` , what is it?
Met

And then `O=C(NO)c1ccc(O)cc1O` , what is it?
Not met
